# test-summary: 384-well plate pilot, post-Golgi transport modulator project, inhibition of yeast transport mutant growth (AID 636)
# particulars: absorbance 615 nm, about 18 h, stronger effect = higher value
Form field: inhibition (one value per entry).
property: inhibition (%)

                                   molecule  meas_value
0                COc1ccccc1OCC(=O)N1CCNC1=O       -1.73
1  CCc1nnc(NC(=O)c2cccc(C(=O)Nc3nnc(CC)s3)n2)s1        83.5
2  N#CC1=C(N)Oc2n[nH]c(-c3cccs3)c2C1c1cccs1 (stereo unspecified)       -3.73
3  Cc1cc2oc(=O)cc(CN3CCN(Cc4ccc5c(c4)OCO5)CC3)c2cc1C       -5.73
4          Cn1c(SCc2nnc3n2CCCCC3)nc2ccccc21       -6.67
5  CC(C)Cn1c(CN2CCN(c3ccccc3F)CC2)nc2c1c(=O)[nH]c(=O)n2C       -4.27

* * *

Form field: viability (one value per entry).
# test-summary: SK-BR-3 cell growth inhibitors, pilot screen, 24 h, human (AID 572);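 note: compound exposure lasted between 18 and 24 h rather than exactly 24 h; 100% = carrier-treated control wells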
# particulars: SK-BR-3 viability, CellTiter-Glo luminescence, at 10 µM, stronger effect = lower value
property: viability (%)

>>> print(df.to_string())
                                   compound  meas_value
0  COCC(=O)N(Cc1ccc(OC)cc1)Cc1nc2ccccc2c(=O)[nH]1         126
1  CCOC(=O)C1=C(O)C(=O)N(c2ccc(S(N)(=O)=O)cc2)C1c1ccccc1 (stereo unspecified)        97.5
2  Cn1c(C(=O)NCC2CCCO2)cc2c(=O)[nH]c3ccccc3c21 (stereo unspecified)          81
3  O=S(NCc1ccco1)C12CC3CC(CC(C3)C1)C2 (stereo unspecified)         104
4  O=C(Nc1cccc(F)c1)c1cccc(S(=O)(=O)N2CCOCC2)c1         107
5  CCCn1c(SCC(=O)N2CCCc3ccccc32)nnc1-c1ccccn1        84.5

* * *

# test-summary: SK-BR-3 cell growth inhibitors, pilot screen, 24 h, human (AID 572);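 note: compound exposure lasted between 18 and 24 h rather than exactly 24 h; 100% = carrier-treated control wells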
# particulars: SK-BR-3 viability, CellTiter-Glo luminescence, at 10 µM, stronger effect = lower value
property: viability (%)

>>> print(df.to_string())
                                    compound  meas_value
 0               Cc1ccc(CCNC(=O)Cn2cccc2)cc1         112
 1        Cn1c(SC/C=C/c2ccccc2)nnc1-c1cnccn1        80.5
 2    O=C(CSc1ncnc2c1cnn2-c1ccccc1)Nc1ccccc1          96
 3  COc1ccc(N(C(=O)c2ccco2)C(C(=O)NC2CCCC2)c2ccc(N(C)C)cc2)cc1OC (stereo unspecified)         100
 4  COc1ccc(OC)c(C2=NOC(C(=O)Nc3cccnc3)C2)c1 (stereo unspecified)        78.5
 5  C/C(N)=C(/C#N)C(=O)CSc1nnc(Nc2c(C)cccc2C)s1         108
 6  COc1ccc(S(=O)(=O)NCCC(=O)NC2CCCCCCC2)cc1         108
 7  CC(C)c1ccc(S(=O)(=O)N2CCN(CCC(=O)Nc3ccc(N(C)C)cc3)CC2)cc1         100
 8                 Cc1oc(-c2ccccc2)cc1C(N)=O         103
 9  CC1=C(C(=O)NCc2ccco2)C2(CCC(C)CC2)OC1=O (stereo unspecified)        89.5
10           Cc1ccc(-c2cn3nc(C)c(C)nc3n2)cc1         106

* * *

# test-summary: reversal of MRP1-mediated doxorubicin resistance, pilot screen, H69AR cells, doxorubicin co-treatment (AID 601)
# particulars: H69AR cells, CellTiter-Glo, 72 h; compound alone cytotoxicity; at 10 µM
Form field: viability (one value per entry).
property: viability (%)

>>> df
                                    molecule   property  unit_of_measurement  meas_value
 0           Nc1nnnn1/N=C/c1ccccc1OCc1ccccc1  viability                    %        95.3
 1    CCc1nnc(NC(=O)C2CCN(c3nccc(C)n3)CC2)s1  viability                    %        99.5
 2  CCCCN(CC)CCCNC(=O)CS(=O)(=O)Cc1nc(-c2cccc(OC)c2)oc1C  viability                    %        97.2
 3  CC(NC(=O)c1ccco1)C(c1cccs1)N1CCN(c2ccc(F)cc2)CC1 (stereo unspecified)  viability                    %        86.2
 4     c1ccc(-n2c(Sc3cnccn3)nnc2-c2cccs2)cc1  viability                    %        95.8
 5                    C(=N\n1cnnc1)/c1cccnc1  viability                    %        98.6
 6  O=C(NCc1ccc2c(c1)OCO2)c1cc2n(n1)C(C(F)(F)F)CC(c1ccc3c(c1)OCO3)N2 (stereo unspecified)  viability                    %        84.2
 7  CCOC(=O)CSc1nc2c(c(-c3ccc(C)o3)c1C#N)CCCC2  viability                    %        73.8
 8  O=C1CCCC2=C1C(c1ccsc1)CC(=O)N2c1ccccc1 (stereo unspecified)  viability                    %        92.4
 9       COc1cccc(C(=O)OCn2nnc3ccccc3c2=O)c1  viability                    %         114
10  Cc1cc2oc(=O)cc(CN3CCN(Cc4ccc5c(c4)OCO5)CC3)c2cc1C  viability                    %        80.6

* * *

# test-summary: reversal of MRP1-mediated doxorubicin resistance, pilot screen, H69AR cells, doxorubicin co-treatment (AID 601)
# particulars: H69AR cells + 2 uM doxorubicin, CellTiter-Glo, 72 h; at 10 µM
Activity calls are given as the source filed them.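 How the source made its calls: active means viability loss from added drug above about 55%, and viability with drug at most 40%, in both replicates (limit read from the data, passing the limit was not always enough); inconclusive means both conditions met in only one replicate; inactive means neither replicate meets both conditions.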
Outcome codes: active, inactive

In [3]: df
Out[3]:
                                    compound  class_label
 0          Cc1nc2ccccc2c(=O)n1/N=C/c1ccncc1     inactive
 1        O=C(Nc1nccs1)c1ccc(COc2ccccc2Br)o1     inactive
 2   CSc1nnc(-c2ccc(NC(=O)CCc3ccccc3)cc2)n1C     inactive
 3  CC(Sc1nnnn1-c1ccccc1)C(=O)Nc1ccc(Cl)cn1 (stereo unspecified)     inactive
 4  C=CCn1c(SCC(=O)c2cc(C)n(C(C)COC)c2C)nc2sc(C)c(C)c2c1=O (stereo unspecified)       active
 5        CN=C(Nc1cc(C)nn1-c1ccccc1)c1ccccc1     inactive
 6  O=C(CSCc1cnn(-c2ccccc2)c1-n1cccc1)NCC1CCCO1 (stereo unspecified)     inactive
 7  Cc1cc(NC(=O)CSc2nnc(COc3cccc(C)c3C)n2Cc2ccco2)no1     inactive
 8  CCN(Cc1ccccc1)C(c1ccncc1)c1nnnn1C(C)(C)C (stereo unspecified)     inactive
 9  CCOC(=O)C1=C(C)OC(N)=C(C#N)C1c1ccoc1 (stereo unspecified)     inactive
10  CCCOC(=O)c1ccc(-c2c(C)noc2-c2ccc(OC)cc2O)o1     inactive

* * *

# test-summary: SK-BR-3 cell growth inhibitors, pilot screen, 24 h, human (AID 572);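 note: compound exposure lasted between 18 and 24 h rather than exactly 24 h; 100% = carrier-treated control wells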
# particulars: SK-BR-3 viability, CellTiter-Glo luminescence, at 10 µM, stronger effect = lower value
property: viability (%)

>>> df
                                   molecule  unit_of_measurement  meas_value
0  CC1CCCCC1NC(=O)CCCc1nc2ccccc2c(=O)[nH]1 (stereo not given)                    %        80.5
1       CCCc1nnc2n1N=C(c1ccc(OC)c(OC)c1)CS2                    %          85
2  COC(=O)C1=C(C)C(c2cccs2)NC(=O)N1C (stereo not given)                    %        92.5
3  Cn1c(=O)c2c(nc(SCc3nn[nH]n3)n2Cc2ccccc2F)n(C)c1=O                    %        97.5
4  CCc1nnc(NC(=O)CSc2nnc(CSc3nc(C)cc(C)n3)n2CC)s1                    %         100
5  CC(C)(C)NC(=O)C(c1ccco1)N(C(=O)Cn1nnc(-c2ccc(F)cc2)n1)c1ccccc1F (stereo not given)                    %          99
6  COc1ccc(-c2cc3n(n2)CCc2nc4ccccc4n2-3)cc1                    %        95.5
7         Cc1cc(NC(=O)c2ccccc2Oc2ccccc2)no1                    %          97
8  CNS(=O)(=O)c1cccc(C(=O)OCC(=O)c2cc(C)n(-c3ccc4c(c3)OCO4)c2C)c1                    %        85.5
9  CCN1CCN(c2nc3c(C)cccn3c(=O)c2/C=C(\C#N)S(=O)(=O)c2ccccc2)CC1                    %          93
